Numbers sourced from patent US8309766B2.

Kindly state latent time of nociception threshold, M ± m for each of the entries shown.
Test system: "hot plate" test in mice
experiment summary: Analgetic activity on the model "hot plate"
Format: in vivo, white mongrel mice
experimental conditions: 10 mg/kg, 60 minutes post administration
Numeric answer only, unit s assumed.

Request: Can you share its latent time of nociception threshold, M ± m? I mean this compound: O=C(Cc1ccc(O)cc1)NCCc1ccc(O)cc1 [Compound VII, p-hydroxyphenylacetyltyramine]
Response: 6.9

Request: Look up latent time of nociception threshold, M ± m: O=C(Cc1ccc(O)cc1)NC(Cc1ccc(O)cc1)C(=O)O (centres unmarked) [Compound II, p-hydroxyphenylacetyltyrosine]
Response: 6.1

Request: So what does the record say about latent time of nociception threshold, M ± m for O=C(Cc1ccc(O)cc1)NC(Cc1ccccc1)C(=O)O (centres unmarked) [Compound III, p-hydroxyphenylacetylphenylalanine] ?
Response: 5.9

Request: // lookup latent time of nociception threshold, M ± m for COC(=O)C(Cc1ccccc1)NC(=O)Cc1ccc(O)cc1 (centres unmarked)
Response: 5.9

Request: Value lookup for latent time of nociception threshold, M ± m; key = CC(=O)N[C@@H](Cc1ccc(O)cc1)C(=O)NCCc1ccc(O)cc1
Response: 7.2
